I'd appreciate it if you could supply growth values for the items below.
System: SF-295 CNS
EXPERIMENT: NCI-60 one-dose screen, 48 h (100 = growth as untreated, 0 = no growth, -100 = all killed)
CONDITION SUMMARY: 10 µM unless noted
This is part of a sample that, as a whole, favours compounds with a hit. Of some 83,000 tested, about 20% had one in any assay.
Answers are plain numbers, in %.

INSERT INTO measurements (compound, measured_attribute, observed) VALUES
  ('Cc1ccc(C(=O)COc2cccc(/C=C3\Oc4ccccc4C3=O)c2)cc1', 'growth', 120),
  ('CC(C)Sc1nc(NNC(N)=S)c(C#N)c(-c2ccc(F)cc2)n1', 'growth', 93.7),
  ('C[C@H](NC(=O)[C@@H]1CSSC[C@@H](NC(=O)c2nc3ccccc3cc2O)C(=O)NCC(=O)N1C)c1ccccc1', 'growth', 77.6),
  ('O=C(O)C1CCC(=O)N1C(=O)OCc1ccccc1 (stereo unspecified)', 'growth', 106),
  ('NC(=S)N/N=C/Cc1ccccc1', 'growth', 97.7);

Prompt line: Form field: reported growth of `N#Cc1c(-c2cccc(Cl)c2)cc(-c2cccc(Cl)c2)[nH]c1=O`
Response line: 83.7

* * *

Tested on: K-562 leukemia
EXPERIMENT: NCI-60 one-dose screen, 48 h
CONDITION SUMMARY: 10 µM unless noted
The panel holds about 83,000 compounds, 20% with a hit somewhere; the sample as a whole holds those more often. Active and inactive are the calls of the source. How the source made its calls: active means growth percent below 10; inactive means the rest.
Your response should consist of one outcome taken from active, inactive

INSERT INTO results (compound, label_class) VALUES
  ('O=c1c2c3c(sc2n2c(-c4cc(-c5ccccc5)nn4-c4ccccc4)nnc2n1Cc1ccccc1)CCCC3', 'inactive'),
  ('Cc1ccc(NS(=O)(=O)c2ccc3c(c2)C2OCCC2C(c2ccc(C(=O)C(C)C)cc2)N3)cc1C (centres undefined)', 'inactive'),
  ('CCN1CCN(c2nc(C)cc(NCc3cc(Nc4ccnc5cc(Cl)ccc45)ccc3F)n2)CC1', 'active'),
  ('Cc1nn(-c2ccccc2)c(Cl)c1/C=C(/NC(=O)c1ccccc1)c1nc2ccccc2[nH]1', 'inactive'),
  ('CCCCCCCCCCCCCCCCCC1=NCCN1CCOC1=C(Cl)C(=O)c2ccccc2C1=O', 'inactive'),
  ('COc1ccc(OC)c(-c2c(C#N)c(-c3ccc(Cl)cc3)nc3c2c(-c2ccccc2)nn3-c2ccccc2)c1', 'inactive'),
  ('COc1ccc2[nH]c(O)c(C(=Nc3ccc(N(C)C(=O)CN4CCN(C)CC4)cc3)c3ccccc3)c2c1', 'active'),
  ('c1c[nH]c(CNC2CCCCC2)c1', 'inactive');

Next compound, please.
Prompt line: Name the outcome recorded for `Cc1cc(N2CCCC2)nc(NCc2cc(Nc3ccnc4cc(Cl)ccc34)ccc2F)n1` in the assay.
Response line: active

* * *

Test system: OVCAR-8 ovarian
EXPERIMENT: NCI-60 one-dose screen, 48 h (100 = growth as untreated, 0 = no growth, -100 = all killed)
CONDITION SUMMARY: 10 µM unless noted
The panel holds about 83,000 compounds, 20% with a hit somewhere; the sample as a whole holds those more often. Calls of active or inactive are those of the source. How the source made its calls: active means growth percent below 10; inactive means the rest.
MEASURED ATTRIBUTE: growth

Example cases with answers are listed next.
INSERT INTO results (compound, observed) VALUES
  ('N=C(N)c1ccc(-c2ccc(-c3cncc4ccccc34)s2)s1', '-67.9% (active)'),
  ('COc1ccc(-c2nc3ccc4[nH]ncc4c3c3c2CCCC3)cc1B(O)O', '56.4% (inactive)'),
  ('COc1ccc(C2c3ccc4ccccc4c3Oc3nc(C)[nH]c(=O)c32)cc1 (stereo not drawn)', '101% (inactive)');

Required: growth, one value per compound below.
1. COc1cc(C2CC(=O)Nc3c2c(C)nn3-c2nc3ccccc3[nH]2)c(OC)c(OC)c1OC (stereo not drawn)
2. O=C1CCC2=C3C4CCCCC4C(=O)C4CCCC(OC2C1)C34 (stereo not drawn)

Response line:
1. 47.4% (inactive)
2. 6.21% (active)

Required: growth, one value per compound below.
1. COc1cccc(-c2nn(-c3ccccc3)cc2-c2ccnc(NCCCNC(=O)Nc3ccc(Cl)c(Cl)c3)c2)c1
2. Cc1cc(NCc2cc(Nc3ccnc4cc(Cl)ccc34)ccc2F)nc(N2CCOCC2)n1
3. COc1ccc(C2=NN(C(=O)c3cc(OC)c(OC)c(OC)c3)C(c3ccc(Cl)cc3)C2)cc1OC (stereo not drawn)
4. O=[N+]([O-])c1ccc(C2CC(c3ccccc3)=Nc3ccccc3S2)cc1 (stereo not drawn)

Response line:
1.46% (active)
36.3% (inactive)
34.4% (inactive)
94.9% (inactive)

Required: growth, one value per compound below.
1. Cc1ccc(S(=O)(=O)N/N=C\c2cc(Cl)ccc2O)cc1
2. COc1ccc2occ(C3=C(c4c[nH]c5ccccc45)C(=O)N(O)C3=O)c2c1
3. C[n+]1cc2cc(C(N)=O)[nH]c3c(=N)c(Cl)c(N)c1c23
4. CC1SC(c2ccc(OCc3ccccc3)cc2)N(NC(=O)C(O)(c2ccccc2)c2ccccc2)C1=O (stereo not drawn)
5. NS(=O)(=O)c1ccc(-n2nc(C(=O)N/N=C\c3ccc(F)cc3)cc2-c2ccc(Cl)cc2)cc1
6. COc1ccc2oc3c(C)c4c(c(C)c3c2c1)C(=O)N(Cc1ccccc1)C4=O

Response line:
1: 91.2% (inactive); 2: 90.5% (inactive); 3: 43.1% (inactive); 4: 77.8% (inactive); 5: 96.8% (inactive); 6: 91.2% (inactive)

Required: growth, one value per compound below.
1. O=C(CCCCCCN1CC(=O)N2[C@@H](c3ccccc3Cl)c3[nH]c4ccccc4c3C[C@H]2C1=O)NO
2. COC(=O)[C@]12CC[C@@H](C)[C@H](C)[C@@H]1C1=CC[C@@H]3[C@@]4(C)C(C=O)=C[C@@](C)(COC(C)=O)[C@@H]4C(=O)C[C@@]3(C)[C@]1(C)CC2
3. Cc1cc[c-]cc1.Fc1c[c-]c(-c2ccccn2)c(F)c1.[Pt+2].c1ccc(P(C[PH+](c2ccccc2)c2ccccc2)c2ccccc2)cc1

Response line:
1. 49.6% (inactive)
2. 41.5% (inactive)
3. 11% (inactive)
